target: MPV fusion glycoprotein with the D280N mutation (MPV-F N280) (metapneumovirus); experiment: biolayer interferometry (BLI), rIgG1 with M428L/N434S
Quick reference for Kd among some binders
Quick note: give the figure in nM, leave out the unit.

The value of Kd measured for the binder MPH12-v29 (VH-FRGL-D62E/VL-S26A) (antibody, V domains shown) VH: QVQLVESGGGLVKPGGSLRLSCAASGFTFSGFYMKWIRQAPGKGLEWVSSISASGSYTNYAESVEGRFTISRDNAKNSLYLQMNSLRAEDTAVYYCARGDSYCGASACHGEFFHKWGQGTLVTVSS VL: QSVLTQPPSVSGAPGQRVTISCTGSDANIGADFDVHWYQQLPGTAPKLLIYGNINRPSGVPDRFSGSRSGTSAFLAITRLQAEDEADYYCQSYDRSLHYVFGAGTKVTVL turned out to be 0.64

New cases:
According to the records, this binder MPH12-v17 (VH-FRGL-D62E/VL-D25S) (antibody, V domains shown) VH: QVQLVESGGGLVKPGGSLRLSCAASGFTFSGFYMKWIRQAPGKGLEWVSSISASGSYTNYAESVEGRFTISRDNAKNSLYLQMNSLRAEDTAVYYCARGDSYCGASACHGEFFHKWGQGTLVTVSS VL: QSVLTQPPSVSGAPGQRVTISCTGSSSNIGADFDVHWYQQLPGTAPKLLIYGNINRPSGVPDRFSGSRSGTSAFLAITRLQAEDEADYYCQSYDRSLHYVFGAGTKVTVL displays Kd of 0.55

// recorded Kd for MPH12-v35 (VH-FRGL-D62E/VL-FRGL-D25S) (antibody, V domains shown) VH: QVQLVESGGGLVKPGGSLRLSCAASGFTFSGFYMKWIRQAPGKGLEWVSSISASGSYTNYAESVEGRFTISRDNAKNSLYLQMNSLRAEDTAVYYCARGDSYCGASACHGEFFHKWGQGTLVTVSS VL: QSVLTQPPSVSGAPGQRVTISCTGSSSNIGADFDVHWYQQLPGTAPKLLIYGNINRPSGVPDRFSGSKSGTSASLAITGLQAEDEADYYCQSYDRSLHYVFGTGTKVTVL : 0.78

For this binder ( MPH12-v34 (VH-FRGL-S63A/VL-FRGL-D25S) (antibody, V domains shown) VH: QVQLVESGGGLVKPGGSLRLSCAASGFTFSGFYMKWIRQAPGKGLEWVSSISASGSYTNYADAVEGRFTISRDNAKNSLYLQMNSLRAEDTAVYYCARGDSYCGASACHGEFFHKWGQGTLVTVSS VL: QSVLTQPPSVSGAPGQRVTISCTGSSSNIGADFDVHWYQQLPGTAPKLLIYGNINRPSGVPDRFSGSKSGTSASLAITGLQAEDEADYYCQSYDRSLHYVFGTGTKVTVL ), measured Kd is 0.82
